- Tgt: TEM-1 (Escherichia coli, UniProt P62593)
Recorded Endpoint: pIC50
Bear in mind: pIC50 is minus log10 of a mol/L concentration; give just that figure.

Reference set (3 entries):
O=C1N2CC(n3ccc(CO)n3)=CC(C2)N1OS(=O)(=O)O (centres unmarked) [Example 12]    9.39
NCCNC(=O)c1cnn(C2=CC3CN(C2)C(=O)N3OS(=O)(=O)O)c1 (centres unmarked) [Example 38]    9.37
O=C(NCCO)c1ccn(C2=CC3CN(C2)C(=O)N3OS(=O)(=O)[O-])n1.[Na+] (centres unmarked) [Example 11]    8.92

Recorded pIC50 for CC(=O)c1ccn(C2=CC3CN(C2)C(=O)N3OS(=O)(=O)[O-])n1.[Na+] (centres unmarked) [Example 28, sulfate] with TEM-1 (Escherichia coli, UniProt P62593), please?
9.43

Recorded pIC50 for O=C1N2CC(n3ccsc3=O)=CC(C2)N1OS(=O)(=O)[O-].[Na+] (centres unmarked) [Example 1] with TEM-1 (Escherichia coli, UniProt P62593), please?
9.60

Recorded pIC50 for O=C1N2CC(n3cc(N4CCNCC4)cn3)=CC(C2)N1OS(=O)(=O)O (centres unmarked) [Example 42] with TEM-1 (Escherichia coli, UniProt P62593), please?
9.51

Recorded pIC50 for O=C1N2CC(n3ccc([C@H](O)CO)n3)=CC(C2)N1OS(=O)(=O)[O-].[Na+] (some centres unmarked) [Example 76] with TEM-1 (Escherichia coli, UniProt P62593), please?
8.74

Recorded pIC50 for O=C(Nc1ncco1)c1ccn(C2=CC3CN(C2)C(=O)N3OS(=O)(=O)[O-])n1.[Na+] (centres unmarked) [Example 37] with TEM-1 (Escherichia coli, UniProt P62593), please?
9.30

Recorded pIC50 for [2H]c1nn(C2=CC3CN(C2)C(=O)N3OS(=O)(=O)[O-])c([2H])c1[2H].[Na+] (centres unmarked) [Example 43] with TEM-1 (Escherichia coli, UniProt P62593), please?
9.07

Recorded pIC50 for CC(=NOCCN)c1ccn(C2=CC3CN(C2)C(=O)N3OS(=O)(=O)O)n1 (mixture of isomers) [Example 29] with TEM-1 (Escherichia coli, UniProt P62593), please?
9.68

Recorded pIC50 for O=C(NCCN1CCOCC1)c1ccn(C2=CC3CN(C2)C(=O)N3OS(=O)(=O)O)n1 (centres unmarked) [Example 72] with TEM-1 (Escherichia coli, UniProt P62593), please?
9.04

Recorded pIC50 for O=C(N[C@@H]1CCNC1)c1ccn(C2=CC3CN(C2)C(=O)N3OS(=O)(=O)O)n1 (some centres unmarked) [Example 83] with TEM-1 (Escherichia coli, UniProt P62593), please?
9.57

Recorded pIC50 for O=C(Nc1nccs1)c1ccn(C2=CC3CN(C2)C(=O)N3OS(=O)(=O)[O-])n1.[Na+] (centres unmarked) [Example 25] with TEM-1 (Escherichia coli, UniProt P62593), please?
9.54

Recorded pIC50 for O=C(Nc1cc[nH]n1)c1ccn(C2=CC3CN(C2)C(=O)N3OS(=O)(=O)[O-])n1.[Na+] (centres unmarked) [Example 85] with TEM-1 (Escherichia coli, UniProt P62593), please?
9.46
